Biological target: T1, APC9141-AA
T1 chain: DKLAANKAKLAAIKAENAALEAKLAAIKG
Test: two-hybrid library CCmax;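 further: natural log of median RNA to DNA barcode read ratio; higher means stronger binding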
Settings: mean of both orientations
experimental_endpoint: interaction score

{"binder": "DEAAALEAKAAALKAKLAAEKAKNAALKG [APC2375-AA]", "interaction score": -1.6}
{"binder": "DELAANEAKNAALKAKLAAIKAELAAEEG [APC8516-AA]", "interaction score": -1.56}
{"binder": "DEAAALEAELAANEAKLAAIKAKLAAIKG [APC2811-AA]", "interaction score": -1.29}
{"binder": "DKAAALKAELAANEAELAANEAKLAAIKG [APC3881-AA]", "interaction score": -1.38}
{"binder": "DELAANEAENAALEAELAAIEAKLAAIKG [APC8401-AA]", "interaction score": -1.49}
{"binder": "DKLAAIKAKLAANKAELAANEAKLAAEKG [APC1987-AA]", "interaction score": -1.68}
{"binder": "DEAAALEAKNAALKAENAALEAKAAALKG [APC2543-AA]", "interaction score": -1.6}
{"binder": "DEAAALEAEAAALEAKNAALKAKLAAEKG [APC2257-AA]", "interaction score": -1.37}
{"binder": "DKLAAEKAKNAALKAEAAALEAENAALEG [APC7524-AA]", "interaction score": -1.69}
{"binder": "DELAAIEAEAAALEAEAAALEAEAAALEG [APC222-AA]", "interaction score": -1.74}
{"binder": "DKAAALKAEAAALEAELAAEEAKNAALKG [APC3265-AA]", "interaction score": -1.63}
{"binder": "DKNAALKAELAAIEAELAAIEAKLAANKG [APC5009-AA]", "interaction score": -1.42}
{"binder": "DENAALEAKLAAIKAELAAIEAELAAIEG [APC4100-AA]", "interaction score": -1.35}
{"binder": "DEAAALEAKLAANKAELAANEAKLAAIKG [APC2981-AA]", "interaction score": -1.53}
